Measured values drawn from PubChem BioAssay (NCI) for this set.

System: IGROV1 ovarian
Procedure Summary: NCI tumour cell line growth inhibition, 48 h
# TGI per entry
Attribute Measured: TGI

# Compound, Attribute Measured, Endpoint Value
data = [
    ("CN(C)c1nnnn1-c1c(N)n(C)c(=O)n(C)c1=O", "TGI", "> 100 µM"),
    ("CCCCC(C)C(OC(=O)CC(CC(=O)O)C(=O)O)C(CC(C)CC(O)CCCCC(O)CC(O)C(C)N)OC(=O)CC(CC(=O)O)C(=O)O (centres undefined)", "TGI", "> 100 µM"),
    ("N[C@@H]1C(=O)N2C(C(=O)OC(c3ccccc3)c3ccccc3)=C(CCl)CS[C@H]12", "TGI", "> 100 µM"),
    ("CCCCCCCC(CC(=O)NC(CO)C(=O)NC(CO)CC(C)C)OC(=O)CC(CCCCCCC)OC(=O)CC(CCCCCCC)OC1OC(C)C(O)C(OC2OC(C)C(O)C(O)C2OC(C)=O)C1O (centres undefined)", "TGI", "23 µM"),
    ("Cc1cc(Nc2nc(-c3cccnc3)nc3ccccc23)n[nH]1", "TGI", "> 40.6 µM"),
    ("COc1ccccc1C1=C(Nc2ccccc2)C(=O)NC1=O", "TGI", "> 25 µM"),
    ("CCN(CC)c1ccc(N=Nc2ccc([N+](=O)[O-])cc2OC(=O)/C=C/c2ccccc2)c(OC(=O)/C=C/c2ccccc2)c1", "TGI", "> 100 µM"),
    ("COC(=O)C1=C(OC(=O)/C=C/c2ccccc2)C(C(=O)OC)[C@@]2(O)[C@@H](C(=O)OC)[C@H](C)C[C@@H]1[C@@H]2C(=O)OC (some centres undefined)", "TGI", "63.3 µM"),
    ("CN(C)c1ccc(/C=C/c2ccc(/C=C/c3ccc(N(C)C)cc3)cc2)cc1", "TGI", "> 100 µM"),
    ("COc1cc2cc(C(=O)N3CC(CCl)c4c3cc(NC(=O)OCc3ccc([N+](=O)[O-])cc3)c3ccccc43)[nH]c2c(OC)c1OC (centres undefined)", "TGI", "> 90 µM"),
    ("CCOC(=O)c1c(C)n(Cc2ccccc2)c2c1cc(O)c1[nH]c(Cc3ccccc3)nc12", "TGI", "> 57.7 µM"),
    ("CC(=O)OC1=CC2=CC[C@H]3[C@@H]4CCC(=O)[C@@]4(C)CC(=O)[C@]3(S)[C@@]2(C)CC1", "TGI", "> 100 µM"),
    ("NNc1nncc2[nH]cnc12", "TGI", "> 100 µM"),
    ("CCCCCCNC(=O)Oc1ccc(/C(=C(/C)Cc2ccc(OC)cc2)c2ccc(OCCCN(C)C)cc2)cc1", "TGI", "32.7 µM"),
    ("C=CC(OC(C)=O)c1ccc(OC(=O)C(C)C)c(OC)c1 (centres undefined)", "TGI", "28.7 µM"),
    ("CC(=O)OCc1cncn1S(=O)(=O)c1ccc(C)cc1", "TGI", "> 100 µM"),
    ("CCN(Cc1ccc(F)cc1)c1ccc(CO)c(C)c1", "TGI", "6.16 µM"),
    ("COC(=O)CCc1ccc2c(c1)C(=O)CC2", "TGI", "> 100 µM"),
    ("O=c1sc2c(s1)-c1sc(=O)sc1SS2", "TGI", "> 100 µM"),
]
